Reference for the values: PubChem BioAssay (NCI)

System: DU-145 prostate
PROTOCOL: NCI-60 one-dose screen, 48 h (100 = growth as untreated, 0 = no growth, -100 = all killed)
CONDITIONS USED: 10 µM
Compounds without any hit were thinned out: in the full panel of roughly 83,000, 20% have a hit. Active and inactive are the calls of the source. Rule for the calls: active = growth percent below 10; inactive = the rest.
Entries and their growth

{"COMPOUND": "CC1=NN(C(=O)c2nn(-c3ccc(Cl)cc3)cc2O)C(=O)C1", "RESULT": "52.4% (inactive)"}
{"COMPOUND": "COc1cc(/C=C2\\CCCC3=C2N=C2SC(C)=CN2C3c2cc(OC)c(OC)c(OC)c2)cc(OC)c1OC (centres undefined)", "RESULT": "-26.9% (active)"}
{"COMPOUND": "NC1=NC(c2ccc(Cl)cc2)C2=C(N1)/C(=C/c1ccc(Cl)cc1)CCC2 (centres undefined)", "RESULT": "97.2% (inactive)"}

The recorded growth for C=CCN(CC=C)C(=O)[C@H](CC)[C@@H]1CC[C@@H](C)[C@@H]([C@H](C)[C@@H](O)[C@@H](C)C(=O)[C@H](CC)C2O[C@]3(C=CC(=O)[C@]4(CC[C@@](C)([C@H]5CC[C@](O)(CC)[C@H](C)O5)O4)O3)[C@H](C)C[C@@H]2C)O1 (some centres undefined) is 74.8% (inactive)

---

Test system: BT-549 breast
PROTOCOL: NCI-60 one-dose screen, 48 h
CONDITIONS USED: 10 µM
The panel holds about 83,000 compounds, 20% with a hit somewhere; the sample as a whole holds those more often. Active and inactive are the calls of the source. How the source made its calls: active means growth percent below 10; inactive means the rest.
Answer with one of the outcomes given here: active, inactive

{"COMPOUND": "Fc1ccc2[nH]cc(-c3nc(-c4ccsc4)cs3)c2c1", "CLASSIFICATION": "inactive"}

// param item: COc1cc(OC)c2c(=O)c(O)c(-c3ccccc3)oc2c1 ; yields the recorded call
inactive

// param item: COc1cc(/C=C2\CCCC3=C2NC(N)=NC3c2cc(OC)c(OC)c(OC)c2)cc(OC)c1OC (centres undefined) ; yields the recorded call
active

// param item: CC[C@@H](C(=O)[C@H](C)[C@H](O)[C@@H](C)[C@H]1O[C@H]([C@@H](CC)C(=O)O)CC[C@H]1C)C1O[C@]2(C=C[C@@H](O)[C@]3(CC[C@@](C)([C@H]4CC[C@](O)(CC)[C@H](C)O4)O3)O2)[C@H](C)C[C@@H]1C (some centres undefined) ; yields the recorded call
active

// param item: S=c1cnc2ccccc2[nH]1 ; yields the recorded call
inactive

// param item: COc1cc(-c2csc(NC(=O)Nc3ccc(Cl)c(C(F)(F)F)c3)n2)cc(OC)c1OC ; yields the recorded call
active

// param item: O=C1/C(=C/c2ccc3c(c2)OCO3)SC(=S)N1C1c2ccccc2Oc2ccccc21 ; yields the recorded call
inactive

// param item: CN1C(C(=O)Nc2ccccn2)=C(O)c2sc(Cl)cc2S1(=O)=O ; yields the recorded call
inactive

// param item: NS(=O)(=O)Oc1ccc(NC(=O)C2CCCCCC2)cc1 ; yields the recorded call
inactive

// param item: CCOC(=O)c1cc(C(=O)c2cc(OC)cc(OC)c2)n2nc(C)ccc12 ; yields the recorded call
inactive

// param item: COc1cc2cc(Oc3ccc(NC(=O)Nc4ccc(C(F)(F)F)cc4)cc3)c(C)nc2cc1OC ; yields the recorded call
inactive

// param item: CC(C)N(CCOc1ccc(-c2nc3sccn3c2-c2ccnc(S(C)(=O)=O)n2)cc1)C(C)C ; yields the recorded call
inactive

---

System: T-47D breast
PROTOCOL: NCI-60 one-dose screen, 48 h (100 = growth as untreated, 0 = no growth, -100 = all killed)
CONDITIONS USED: 10 µM
Compounds without any hit were thinned out: in the full panel of roughly 83,000, 20% have a hit.
Tag: 1 (yes) if measured growth is not below 60%, 0 (no) if it is.

A selection of reference data follows.
{"COMPOUND": "O=C1c2ccccc2C(=O)N1CCCCNc1ccccc1", "CLASSIFICATION": "1 (yes)"}
{"COMPOUND": "CN(C)c1ccc(/C=N/NC(=O)c2ccccc2Nc2cccc(C(F)(F)F)c2)cc1", "CLASSIFICATION": "1 (yes)"}
{"COMPOUND": "COc1cc2c(Nc3ccc(-c4ccc(N)cc4)cc3)ncnc2c(OC)c1OC", "CLASSIFICATION": "1 (yes)"}

Quick check: does CN(C)CCC1(c2ccccc2)CCN(C)C1=O (configuration not stated) have growth greater than or equal to 60%?
1 (yes)

Quick check: does O=C(CCCCCCC(=O)Nc1ccccc1)NO have growth greater than or equal to 60%?
0 (no)

Quick check: does COc1cc(-c2nn(-c3cccc(NC(=O)NCCNS(=O)(=O)c4ccc(Cl)cc4)c3)cc2-c2ccncc2)ccc1Cl have growth greater than or equal to 60%?
0 (no)

Quick check: does CN1CCc2c(sc3nc4n(-c5ccc(Cl)cc5)c(=O)[nH]n4c(=O)c23)C1 have growth greater than or equal to 60%?
1 (yes)

Quick check: does Cn1c2ccccc2c2c3[nH][nH]c(=O)c3c3c4ccccc4[nH]c3c21 have growth greater than or equal to 60%?
0 (no)

---

Entries and their growth
Tested on: SK-MEL-2 melanoma
PROTOCOL: NCI-60 one-dose screen, 48 h (100 = growth as untreated, 0 = no growth, -100 = all killed)
CONDITIONS USED: 10 µM
The panel holds about 83,000 compounds, 20% with a hit somewhere; the sample as a whole holds those more often.
Numeric answer only, unit % assumed.

Solved entries (count: 4):
{"COMPOUND": "CCOC(=O)Cn1c(=O)c2sc3ncccc3c2n2nnc(-c3ccccc3)c12", "RESULT": 103}
{"COMPOUND": "COc1ccc(/C=c2\\sc3n(c2=O)C(c2cc(OC)c(OC)c(OC)c2)C=C(c2ccc(OC)c(OC)c2)N=3)cc1OC (centres undefined)", "RESULT": 106}
{"COMPOUND": "O=[N+]([O-])c1ccc(/C(=C/c2ccccc2)[n+]2ccccc2)cc1", "RESULT": 125}
{"COMPOUND": "COc1cc(/C=C/c2cc(/C=C/c3ccc(O)c(OC)c3)[nH]c(=O)n2)ccc1O", "RESULT": 81.1}

Log: SK-MEL-2 melanoma, compound CCOC(=O)c1sc2ncnc(Nc3ccc(NC(=O)Nc4ccc(Cl)cc4)cc3)c2c1C , growth = 87.2

Log: SK-MEL-2 melanoma, compound O=C(CSc1nccc(Nc2cccc3ccccc23)n1)c1ccc(Cl)cc1 , growth = 102

Log: SK-MEL-2 melanoma, compound COc1cc(-c2nn(-c3cccc(NC(=O)NCCNC(=O)c4cccc(C(F)(F)F)c4)c3)cc2-c2ccncc2)ccc1Cl , growth = 21.5

Log: SK-MEL-2 melanoma, compound COc1cc2c(cc1NC(=O)C(Cl)Cl)-c1ccc(NC(=O)C(Cl)Cl)cc1C2 , growth = -14.7

Log: SK-MEL-2 melanoma, compound COc1ccc(-c2nn(-c3cccc(Cl)c3)cc2-c2c(C#N)c(N)n(N)c(=O)c2C#N)cc1 , growth = 77.4

Log: SK-MEL-2 melanoma, compound Nc1ccccc1NC(=O)c1ccc(CCCC(=O)Nc2ccc(C3CC3N)cc2)cc1 (centres undefined) , growth = -4.46

Log: SK-MEL-2 melanoma, compound Nc1nc(-c2cccnc2)nc2c1sc(=S)n2-c1ccccc1 , growth = 101

Log: SK-MEL-2 melanoma, compound COc1cc(C(=O)N2CCN(c3cc4c(cc3F)c(=O)c(C(=O)NO)cn4C3CC3)CC2)cc(OC)c1OC , growth = 90.2

Log: SK-MEL-2 melanoma, compound CCN(CC)CCN1c2nc3ccccc3cc2Sc2cc3ccccc3nc21 , growth = -35.9

Log: SK-MEL-2 melanoma, compound Nc1ccn(Cc2nnc(CCC(=O)c3nc4ccccc4[nH]3)o2)c(=O)n1 , growth = 100

Log: SK-MEL-2 melanoma, compound O=C(NCCCNS(=O)(=O)c1ccc(Cl)cc1)Nc1ccc(-n2cc(-c3ccncc3)c(-c3ccc(Cl)c(O)c3)n2)cc1 , growth = 43.4

Log: SK-MEL-2 melanoma, compound CCn1c(SC/C(=N/O)c2ccccc2)nnc1-c1ccccc1 , growth = 108

Log: SK-MEL-2 melanoma, compound COc1cc(-c2nn(-c3ccc(NC(=O)NCCCNC(=O)c4ccccc4)cc3)cc2-c2ccncc2)ccc1Cl , growth = 18

---

System: MDA-MB-231 breast
PROTOCOL: NCI-60 one-dose screen, 48 h (100 = growth as untreated, 0 = no growth, -100 = all killed)
CONDITIONS USED: 10 µM
About 83,000 compounds went through this panel and 20% of them were active in at least one assay; those are over-represented in the sample as a whole.
MEASURE: growth (%)
Numeric answer only, unit % assumed.

The recorded growth for CC(C)CCN(CCC(C)C)CC(=O)Nc1ccc(S(=O)(=O)c2ccc(NC(=O)CN(CCC(C)C)CCC(C)C)cc2)cc1 is 31

The recorded growth for O=C(Nc1cccc2c1CCCC2)c1cc2ccccc2cc1O is 34.8

The recorded growth for Cn1cnc([N+](=O)[O-])c1/C=C1\Oc2ccc(Br)cc2C1=O is 91.8

The recorded growth for C/C(=C/CCC(C)[C@@H]1CC[C@]2(C)C3=C(CC[C@@]12C)[C@@]1(C)CCC(=O)C(C)(C)[C@@H]1CC3)C(=O)O (some centres undefined) is -76.8
